System: MCF7 breast
Assay: NCI-60 one-dose screen, 48 h (100 = growth as untreated, 0 = no growth, -100 = all killed)
Details: 10 µM
Procedure: Growth inhibition of the MCF7 human tumor cell line is measured as a screen for anti-cancer activity. Cells are grown in 96 well plates and exposed to the test compound for 48 hours. Compounds are tested at a single concentration, which is 10^-5 M for most compounds. The reported endpoint is percent growth (GI% or GIPRCNT), where numbers from 0 - 100% represent growth inhibition, and numbers from -100% - 0 represent cell death. For example, a value of 40 represents 60% growth inhibition. […]
About 83,000 compounds went through this panel and 20% of them were active in at least one assay; those are over-represented in the sample as a whole.
API: label(entry) gives 1 (yes) if the entry's growth is strictly smaller than 20%; on equality or larger values it gives 0 (no).

IN: Is growth of CCCCCC(=O)c1ccc(OCCCN2CCN(C(=O)OCC)CC2)cc1 strictly below 20%?
OUT: 0 (no)

IN: Please let me know if O=C(C[P+](c1ccccc1)(c1ccccc1)c1ccccc1)C[P+](c1ccccc1)(c1ccccc1)c1ccccc1 shows growth below 20%.
OUT: 1 (yes)

IN: Strictly below 20%: is that where growth of CCN(CC)Cc1cc(Nc2ccnc3cc(Cl)ccc23)ccc1OC sits?
OUT: 0 (no)

IN: State whether 20% exceeds growth recorded for O=C(Nc1nc2ccccc2s1)Nc1ccc([N+](=O)[O-])cc1Cl .
OUT: 0 (no)

---

test system: SN12C renal; experiment: NCI-60 one-dose screen, 48 h (100 = growth as untreated, 0 = no growth, -100 = all killed); settings: 10 µM
Compounds without any hit were thinned out: in the full panel of roughly 83,000, 20% have a hit.
Please respond with t when measured growth is strictly beneath 90%, and with f in all other cases.

IN: # check: growth < 90% for COc1cc(/C=N/NC(=O)c2ccccc2Nc2ccnc(C(F)(F)F)c2)ccc1O
OUT: f

IN: Is growth of Cc1ccc(NC(=O)CSc2nc3ccccc3c(=O)n2CCc2ccccc2)c(C(=O)O)c1 strictly below 90%?
OUT: f

IN: Hi there! Is growth for COc1ccc2c(c1)N(CCO)C1=C(C(=O)OC1)C2c1ccc(OC)c(OC)c1 (configuration not stated) below 90%, do you know?
OUT: t

IN: Lab note: growth threshold 90%. Does this molecule come in strictly under it? CCc1ccc2c(c1)N(CCO)C1=C(C(=O)OC1)C2c1ccccc1 (configuration not stated)
OUT: f

IN: Check if growth falls below 90% for COc1cc(-c2nn3c(/C=C4/C(=O)Nc5ccccc54)c(-c4ccc(C)cc4)nc3s2)cc(OC)c1OC .
OUT: t

IN: Would you kindly verify if growth of Oc1[nH]c2ccc(Cl)cc2c1/C=c1/ccc2c(c1)N=C(c1cccs1)N=2 is strictly less than 90%?
OUT: t

IN: Bench note: check whether COc1cc(C(=C2O[C@@H]([C@H]3COC(C)(C)O3)[C@H]3OC(C)(C)O[C@@H]23)c2cc(OC)c(OC)c(OC)c2)cc(OC)c1OC shows growth below 90%
OUT: f

IN: Consider NC(=O)CC1(c2ccccc2)CCCCC1 . Does its growth lie strictly below 90%?
OUT: f

Others:
IN: Consider CCN(CC)CCC(CNc1c(C)cnc2cc(Cl)ccc12)c1ccc(Cl)cc1 (configuration not stated) . Does its growth lie strictly below 90%?
OUT: t

IN: Report whether reported growth is lower than 90% (strictly) for Cc1cc(C)c(CCc2cc(C)c(C)cc2C)cc1C
OUT: f

IN: Quick check: does COc1ccc2c(c1)sc1nc(-c3ccccc3)c(-c3cccnc3)n12 have growth under 90%?
OUT: f

IN: Consider the molecule CCCCCCCCCCCCCCCCN(C(C)c1ccccc1)S(=O)(=O)c1ccc(OC)c(N)c1 (configuration not stated) . Is its growth strictly less than 90%?
OUT: f

IN: I'd appreciate it if you could check whether COc1ccc(/C=C/C(C)=N/OCC(=O)O)cc1 has growth smaller than 90%.
OUT: f

IN: Criterion: growth strictly below 90%. Is it met by CN1CCCNc2c(c(=O)c2=O)NCCCN(C)CCCNc2c(c(=O)c2=O)NCCCN(C)CCCNc2c(c(=O)c2=O)NCCCN(C)CCCNc2c(c(=O)c2=O)NCCCN(C)CCCNc2c(c(=O)c2=O)NCCCN(C)CCCNc2c(c(=O)c2=O)NCCCN(C)CCCNc2c(c(=O)c2=O)NCCC1 ?
OUT: t

IN: Does the reported growth of the following molecule sit strictly below 90%? O=C1OCC2=C1C(c1cccc(Cl)c1)c1cc3c(cc1N2CCO)OCO3 (configuration not stated)
OUT: t

IN: Does the reported growth of the following molecule sit strictly below 90%? CC(C)=CCc1ccc(O)c(=O)cc1C(C)C
OUT: t

IN: Please let me know if CC[C@H](C)C(=O)O[C@H]1CCC=C2C=C[C@H](C)C(CCC3C[C@@H](O)CC(=O)O3)[C@H]21 (some centres not stated) shows growth below 90%.
OUT: t

---

Parameter: growth. Scope: all listed entries.
tested on: PC-3 prostate; assay: NCI-60 one-dose screen, 48 h (100 = growth as untreated, 0 = no growth, -100 = all killed); settings: 10 µM
About 83,000 compounds went through this panel and 20% of them were active in at least one assay; those are over-represented in the sample as a whole. Active and inactive are the calls of the source. Rule for the calls: active = growth percent below 10; inactive = the rest.

Example entries begin here.
IN: Data request, read-out growth, for O=C(c1ccc(Cl)cc1Cl)N1CCOCC1
OUT: 96.4% (inactive)

IN: Entry CC12O[C@H](C[C@@H](O)[C@H]1O)n1c3ccccc3c3c4c(c5c6ccccc6n2c5c31)C(=O)N(CCCN)C4=O : reported growth = ?
OUT: 34% (inactive)

IN: // lookup growth for COc1ccc(-c2nnc(-c3c(-c4ccccc4)nc4ncccn34)o2)cc1OC
OUT: 97.9% (inactive)

IN: # lookup: growth of Cc1nc2oc3ccccc3c(=O)c2cc1C(=O)NCc1ccccc1
OUT: 90.9% (inactive)

IN: # query: growth of entry Cn1c(N)c(N=Nc2ccc(S(=O)(=O)Nc3nccs3)cc2)c(=O)n(C)c1=O
OUT: 90.5% (inactive)

IN: For the molecule shown here, COc1ccc(OC)c(/C=C/c2nc(SCc3ccccc3)n(-c3ccc(Cl)cc3)n2)c1 , give the reported growth.
OUT: 35.6% (inactive)

IN: Recorded growth of CN1CC[C@@H](c2c(O)cc(O)c3c(=O)cc(-c4ccccc4Cl)oc23)[C@@H](O)C1 , please.
OUT: -48.9% (active)

IN: # lookup: growth of Cc1ccc(NC(=O)CSc2nc3ccccc3c(=O)n2CCc2ccccc2)c(C(=O)O)c1
OUT: 97.8% (inactive)

IN: Name the reported growth value associated with the molecule COC(=O)[C@@H]1[C@H](O)[C@H](C)[C@H](O)[C@@](C)(O)/C=C\C=C(C)C(=O)Nc2c(C)c(OC(C)=O)c3c(c2O)C(=O)C(C)=C2OCOC(=C23)C(C)=C[C@@](C)(O)[C@H](O)[C@@H](C)[C@H]1OC(C)=O
OUT: 22% (inactive)

IN: Give its growth value. Item: Nc1ccc2c(c1)C1(CCC2)NC(=O)NC1=O (configuration not stated)
OUT: 92% (inactive)

New cases:
IN: Any idea what its growth is? The molecule is CS(=O)(=O)Nc1ccc(Nc2c3ccccc3nc3cc([N+](=O)[O-])ccc23)cc1
OUT: 44.4% (inactive)

IN: Requested field: growth. Item: CCN(CCCCCCCCCCN1CC(=O)N(CCCCCCCCCCN(CC)Cc2ccccc2OC)CC1=O)Cc1ccccc1OC
OUT: -40.9% (active)

---

system: UACC-257 melanoma; test: NCI-60 one-dose screen, 48 h (100 = growth as untreated, 0 = no growth, -100 = all killed); conditions: 10 µM
This is part of a sample that, as a whole, favours compounds with a hit. Of some 83,000 tested, about 20% had one in any assay.
Item-by-item account of growth
Respond numerically; units are % and should not be typed.

Look over these answered cases.
IN: Dear colleague, I am looking for the recorded growth of the following compound: CCOC(=O)CCC(NC(=O)c1ccc(N)cc1)C(=O)OCC (stereo not drawn)
OUT: 101

IN: Which growth value belongs to O=C1OCC2=C1C(c1cccc(Cl)c1)c1cc3c(cc1N2CCO)OCCO3 (stereo not drawn) ?
OUT: 44.6

IN: Return reported growth; argument: CCCCOC(=O)Oc1ccc(C(=O)Oc2ccc(OCC)cc2)cc1
OUT: 99.5

IN: # growth lookup, item c1ccc2c(c1)oc1c3cccnc3ccc21
OUT: 101

IN: Could you share which growth value was measured for O=C1Nc2ccccc2C1=NC1CCCCC1 ?
OUT: 100

More entries:
IN: Look up growth for this compound: C(CCCC1=NCCO1)CCCC1=NCCO1
OUT: 104

IN: Request the reported growth associated with CCCCC/C=C/C(=O)CCc1ccc(O)c(OC)c1
OUT: 91.9

IN: What does the data say about its growth? Entry: CC(=O)n1c(-c2ccc(Cl)c(Cl)c2)cn(-c2ccc(Cl)cc2)c1=O
OUT: 57.5

Each recorded value in this set is attributed to PubChem BioAssay (NCI).
